Experimental System: human receptor tyrosine kinase like orphan receptor 1 (ROR1) (human, UniProt Q01973 30-937)
Sequence (Q01973 30-937): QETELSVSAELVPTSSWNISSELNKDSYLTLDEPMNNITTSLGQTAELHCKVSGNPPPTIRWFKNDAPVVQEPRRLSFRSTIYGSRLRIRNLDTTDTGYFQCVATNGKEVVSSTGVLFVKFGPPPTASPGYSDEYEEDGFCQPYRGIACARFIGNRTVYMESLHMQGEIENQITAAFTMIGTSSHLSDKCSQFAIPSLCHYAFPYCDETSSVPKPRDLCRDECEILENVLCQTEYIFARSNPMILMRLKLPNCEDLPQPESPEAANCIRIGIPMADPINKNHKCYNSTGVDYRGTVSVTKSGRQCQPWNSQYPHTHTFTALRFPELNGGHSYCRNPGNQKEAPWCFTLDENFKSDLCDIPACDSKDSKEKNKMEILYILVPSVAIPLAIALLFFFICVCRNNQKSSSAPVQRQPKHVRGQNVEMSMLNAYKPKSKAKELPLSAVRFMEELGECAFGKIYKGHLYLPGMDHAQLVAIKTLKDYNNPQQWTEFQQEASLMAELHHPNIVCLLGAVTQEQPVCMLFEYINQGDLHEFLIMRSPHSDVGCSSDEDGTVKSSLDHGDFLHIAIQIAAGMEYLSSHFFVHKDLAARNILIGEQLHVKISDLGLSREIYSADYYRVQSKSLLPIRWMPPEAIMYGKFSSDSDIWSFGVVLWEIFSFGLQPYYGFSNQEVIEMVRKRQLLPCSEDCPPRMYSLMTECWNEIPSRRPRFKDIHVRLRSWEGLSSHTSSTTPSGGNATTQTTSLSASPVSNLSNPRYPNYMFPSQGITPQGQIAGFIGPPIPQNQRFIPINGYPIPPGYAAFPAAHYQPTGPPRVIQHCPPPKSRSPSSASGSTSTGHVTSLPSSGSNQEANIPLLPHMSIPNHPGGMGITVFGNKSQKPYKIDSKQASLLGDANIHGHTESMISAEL
Experimental Details: cell-based or functional assay
Parameter: IC50, cell viability (CellTiter-Glo, 72 h), DOHH2 cells (nM)
Give bare numbers, in nM.

stdin: Return reported IC50, cell viability (CellTiter-Glo, 72 h), DOHH2 cells; argument: ADC-B (antibody, human IgG1, kappa, V domains shown, SMCC-DM1 bonded via lysine residues of the antibody (chain and positions not stated); SMCC-DM1 bonded via lysine residues of the antibody (chain and positions not stated); DAR 3.0 to 3.20) VH: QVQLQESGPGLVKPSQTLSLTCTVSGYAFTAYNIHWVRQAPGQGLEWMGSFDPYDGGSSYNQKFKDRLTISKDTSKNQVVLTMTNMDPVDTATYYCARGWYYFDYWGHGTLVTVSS VL: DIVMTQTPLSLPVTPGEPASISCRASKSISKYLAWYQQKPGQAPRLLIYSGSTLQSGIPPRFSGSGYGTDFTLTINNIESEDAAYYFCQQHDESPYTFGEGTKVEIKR
stdout: 78.3
